Biological target: NR1C + NR2A NMDA receptor (Rattus norvegicus, UniProt P35439+Q00959)
Construct: expressed in transfected cells; host or cells: Xenopus laevis oocytes (nuclear injection of pBC/CMV plasmids)
Sequence (Q00959 23-1464, other chains not shown): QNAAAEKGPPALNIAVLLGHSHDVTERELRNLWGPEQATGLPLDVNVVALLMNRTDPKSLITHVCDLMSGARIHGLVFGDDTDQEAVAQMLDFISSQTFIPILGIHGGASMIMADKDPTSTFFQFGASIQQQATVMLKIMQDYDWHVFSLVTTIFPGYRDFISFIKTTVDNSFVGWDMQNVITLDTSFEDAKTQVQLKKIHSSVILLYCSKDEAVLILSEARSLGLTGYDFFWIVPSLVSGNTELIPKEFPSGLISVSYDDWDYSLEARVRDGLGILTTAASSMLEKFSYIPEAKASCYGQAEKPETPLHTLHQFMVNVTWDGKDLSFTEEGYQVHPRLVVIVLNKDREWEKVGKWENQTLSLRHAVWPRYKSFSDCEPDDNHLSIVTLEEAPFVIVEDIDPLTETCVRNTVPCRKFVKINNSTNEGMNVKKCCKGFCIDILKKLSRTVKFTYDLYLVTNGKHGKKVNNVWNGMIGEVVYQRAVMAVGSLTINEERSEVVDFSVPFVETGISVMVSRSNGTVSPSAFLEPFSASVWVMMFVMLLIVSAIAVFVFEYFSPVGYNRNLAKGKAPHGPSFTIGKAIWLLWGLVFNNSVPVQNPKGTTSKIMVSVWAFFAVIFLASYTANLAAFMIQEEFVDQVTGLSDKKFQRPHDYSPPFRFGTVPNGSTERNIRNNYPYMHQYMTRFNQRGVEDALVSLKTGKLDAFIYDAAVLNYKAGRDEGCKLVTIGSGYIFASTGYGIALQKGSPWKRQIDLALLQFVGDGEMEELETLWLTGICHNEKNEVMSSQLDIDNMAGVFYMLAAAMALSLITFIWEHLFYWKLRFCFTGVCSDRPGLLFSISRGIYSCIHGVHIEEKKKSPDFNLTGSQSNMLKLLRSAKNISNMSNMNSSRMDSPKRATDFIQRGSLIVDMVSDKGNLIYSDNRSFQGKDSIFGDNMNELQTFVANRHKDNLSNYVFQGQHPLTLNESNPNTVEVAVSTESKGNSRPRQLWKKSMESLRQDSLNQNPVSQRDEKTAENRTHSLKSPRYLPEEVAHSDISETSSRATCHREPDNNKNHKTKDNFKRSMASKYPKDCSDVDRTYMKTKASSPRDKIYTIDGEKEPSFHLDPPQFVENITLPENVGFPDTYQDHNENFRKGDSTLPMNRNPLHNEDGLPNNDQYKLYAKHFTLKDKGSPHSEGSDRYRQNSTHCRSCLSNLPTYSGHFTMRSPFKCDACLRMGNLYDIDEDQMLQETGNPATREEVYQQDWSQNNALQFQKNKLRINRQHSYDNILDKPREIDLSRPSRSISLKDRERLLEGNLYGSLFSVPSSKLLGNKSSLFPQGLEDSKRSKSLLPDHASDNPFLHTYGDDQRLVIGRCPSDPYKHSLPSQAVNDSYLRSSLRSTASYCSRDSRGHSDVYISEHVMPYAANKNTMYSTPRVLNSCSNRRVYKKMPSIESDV
Experiment: Electrophysiology on recombinant NMDA receptors, NR1C + NR2A in Xenopus oocytes
Type: cell-based
Conditions: 10 μM compound; Xenopus laevis oocytes, voltage clamp −80 mV, 2.7 μM Glu plus 0.9 μM Gly; mean of 4-6 oocytes
Where a name gives a salt, the structure may show the parent alone. Marks after values point to notes of the source that are not given here.
Below: a set of entries, each annotated with reported Electrophysiology NR1C + NR2A % block by 10 μM.

molecule | study.system | value
Cc1ccc(CC2(O)CCN(C[C@@H]3Cc4cc(O)ccc4O3)CC2)cc1.Cl | NR1C + NR2A NMDA receptor (Rattus norvegicus, UniProt P35439+Q00959) | 8%
CCc1ccc(CC2(O)CCN(CC3Cc4cc(O)ccc4O3)CC2)cc1.Cl (racemic) | NR1C + NR2A NMDA receptor (Rattus norvegicus, UniProt P35439+Q00959) | 12%

Per the record, Cl.Oc1ccc2c(c1)C[C@@H](CN1CCC(O)(Cc3ccc(Cl)cc3)CC1)O2 has Electrophysiology NR1C + NR2A % block by 10 μM of 9%

Per the record, Cc1ccc(CC2(O)CCN(CC3Cc4cc(O)ccc4C3O)CC2)cc1 (centres unmarked) [Example 16, Fumarate Salt] has Electrophysiology NR1C + NR2A % block by 10 μM of 6%

Per the record, Cc1ccc(CC2(O)CCN(CC3=Cc4ccc(O)cc4CC3)CC2)cc1 has Electrophysiology NR1C + NR2A % block by 10 μM of 65* %

* * *

Below: a set of entries, each annotated with reported Electrophysiology NR1C + NR2B % block by 0.1 μM.
Molecular target: NR1C + NR2B NMDA receptor (Rattus norvegicus, UniProt P35439+Q00960)
Construct: expressed in transfected cells; host or cells: Xenopus laevis oocytes (nuclear injection of pBC/CMV plasmids)
Sequence (Q00960 27-1482, other chains not shown): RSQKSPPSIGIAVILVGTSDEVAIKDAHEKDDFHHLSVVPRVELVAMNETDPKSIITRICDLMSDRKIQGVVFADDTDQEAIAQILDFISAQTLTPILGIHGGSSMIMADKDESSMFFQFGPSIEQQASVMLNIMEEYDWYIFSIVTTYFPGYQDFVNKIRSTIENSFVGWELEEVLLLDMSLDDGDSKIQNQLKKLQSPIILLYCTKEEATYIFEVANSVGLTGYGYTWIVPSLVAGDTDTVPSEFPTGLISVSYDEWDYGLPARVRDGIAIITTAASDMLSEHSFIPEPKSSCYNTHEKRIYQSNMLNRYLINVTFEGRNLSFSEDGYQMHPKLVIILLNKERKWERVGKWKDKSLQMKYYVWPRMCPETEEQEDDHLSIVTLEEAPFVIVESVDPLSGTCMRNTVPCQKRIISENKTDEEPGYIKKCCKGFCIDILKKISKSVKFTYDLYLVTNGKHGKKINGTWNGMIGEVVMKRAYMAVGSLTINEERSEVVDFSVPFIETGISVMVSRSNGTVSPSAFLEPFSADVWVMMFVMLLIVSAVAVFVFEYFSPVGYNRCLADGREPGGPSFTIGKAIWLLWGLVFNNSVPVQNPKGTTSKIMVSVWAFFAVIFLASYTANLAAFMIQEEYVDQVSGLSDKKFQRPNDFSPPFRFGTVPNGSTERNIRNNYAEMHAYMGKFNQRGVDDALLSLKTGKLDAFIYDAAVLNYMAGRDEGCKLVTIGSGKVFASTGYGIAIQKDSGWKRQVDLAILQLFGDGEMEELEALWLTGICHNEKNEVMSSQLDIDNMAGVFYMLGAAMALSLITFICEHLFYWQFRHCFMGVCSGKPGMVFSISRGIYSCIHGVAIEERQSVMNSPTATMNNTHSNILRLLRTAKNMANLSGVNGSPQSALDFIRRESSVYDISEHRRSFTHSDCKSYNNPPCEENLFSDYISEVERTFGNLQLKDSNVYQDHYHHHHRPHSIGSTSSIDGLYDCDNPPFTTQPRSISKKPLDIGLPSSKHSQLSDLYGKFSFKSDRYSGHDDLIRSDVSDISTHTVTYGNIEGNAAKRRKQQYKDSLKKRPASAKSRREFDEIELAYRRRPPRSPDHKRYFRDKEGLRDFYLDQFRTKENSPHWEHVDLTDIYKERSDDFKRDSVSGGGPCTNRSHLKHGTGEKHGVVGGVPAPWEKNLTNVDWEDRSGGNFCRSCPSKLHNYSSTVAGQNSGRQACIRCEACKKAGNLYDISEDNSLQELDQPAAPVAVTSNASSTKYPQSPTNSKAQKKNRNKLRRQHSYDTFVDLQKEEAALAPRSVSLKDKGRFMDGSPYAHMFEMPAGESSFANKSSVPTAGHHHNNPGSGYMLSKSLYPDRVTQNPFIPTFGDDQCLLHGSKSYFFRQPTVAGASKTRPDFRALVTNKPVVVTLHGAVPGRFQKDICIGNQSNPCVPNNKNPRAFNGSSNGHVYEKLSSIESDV
Assay: Electrophysiology on recombinant NMDA receptors, NR1C + NR2B in Xenopus oocytes
Format: cell-based
Conditions: 0.1 μM compound; Xenopus laevis oocytes, voltage clamp −80 mV, 1.3 μM Glu plus 0.07 μM Gly; mean of 4-6 oocytes
Please state the figure in %; there is no need to write the unit.

molecule | value
Cc1ccc(CC2(O)CCN(CC3=Cc4ccc(O)cc4CC3)CC2)cc1 [Example 1] | 72
Cl.Oc1ccc2c(c1)C[C@@H](CN1CCC(O)(Cc3ccc(Cl)cc3)CC1)O2 [Example 14] | 90

Response field Electrophysiology NR1C + NR2B % block by 0.1 μM (NR1C + NR2B NMDA receptor (Rattus norvegicus, UniProt P35439+Q00960)) for item CCc1ccc(CC2(O)CCN(CC3Cc4cc(O)ccc4O3)CC2)cc1.Cl (racemic) [Example 7] : 89

Response field Electrophysiology NR1C + NR2B % block by 0.1 μM (NR1C + NR2B NMDA receptor (Rattus norvegicus, UniProt P35439+Q00960)) for item Cc1ccc(CC2(O)CCN(C[C@@H]3Cc4cc(O)ccc4O3)CC2)cc1.Cl [Example 13] : 93
